# Test system: Rattus norvegicus
# method.summary: Antipyretic activity against LPS-induced pyresis in Wistar rat assessed as change in rectal temperature at 100 mg/kg, po after 2 hrs
# Assay type: functional
endpoint.name: Activity
Give the number first and the unit second.

Incoming: What Activity value was documented for this molecule, COc1ccc(NC(=O)CC2CCc3cc(OC)c(OC)cc32)cc1 (stereo unspecified) ?
Outgoing: -1.84 °C

Incoming: // repeat for COc1ccc2c(c1)c(CC(=O)O)c(C)n2C(=O)c1ccc(Cl)cc1 and report
Outgoing: -1.03 °C

Incoming: // repeat for COc1cc2c(cc1OC)C(CC(=O)Nc1cccc(C)c1)CC2 (stereo unspecified) and report
Outgoing: -1.34 °C

Incoming: // repeat for COc1cc2c(cc1OC)C(CC(=O)Nc1cccc(Cl)c1)CC2 (stereo unspecified) and report
Outgoing: -1.62 °C

Incoming: // repeat for COc1cc2c(cc1OC)C(CC(=O)Nc1ccc(Cl)cc1)CC2 (stereo unspecified) and report
Outgoing: -1.69 °C

Incoming: // repeat for COc1cc2c(cc1OC)C(CC(=O)Nc1ccncc1)CC2 (stereo unspecified) and report
Outgoing: -2.23 °C

* * *

# Tested on: Rattus norvegicus
# method.summary: Antiarthritic activity against adjuvant-induced arthritis in Wistar rat assessed as inhibition of paw edema at 100 mg/kg, po on day 3
# Format: functional
# condition.info: 72 h
Record true (1) whenever inhibition in vivo at 100 mg/kg is at 30% or higher; record false (0) when lower.

Incoming: Hello, I need to know if COc1cc2c(cc1OC)C(CC(=O)Nc1ccc(Cl)cc1)CC2 (stereo not given) has measured inhibition in vivo at 100 mg/kg not below 30%. Thanks!
Outgoing: false (0)

Incoming: // repeat for COc1cc2c(cc1OC)C(CC(=O)Nc1ccc([N+](=O)[O-])cc1)CC2 (stereo not given) and report
Outgoing: false (0)

Incoming: // repeat for COc1cc2c(cc1OC)C(CC(=O)Nc1cccc(C)c1)CC2 (stereo not given) and report
Outgoing: false (0)

Incoming: // repeat for COc1cc2c(cc1OC)C(CC(=O)Nc1ccncc1)CC2 (stereo not given) and report
Outgoing: false (0)

Incoming: // repeat for COc1cc2c(cc1OC)C(CC(=O)Nc1cccc(Cl)c1)CC2 (stereo not given) and report
Outgoing: true (1)

* * *

Could you please report measured inhibition in vivo at 100 mg/kg for the items listed next?
# System: Rattus norvegicus
# method.summary: Antiinflammatory activity in Wistar rat assessed as inhibition of carrageenan-induced paw edema at 100 mg/kg, after 1 hr
# Format: functional
Please give a number only; it is taken to be in %.

Incoming: What inhibition in vivo at 100 mg/kg value was documented for this compound, COc1cc2c(cc1OC)C(CC(=O)Nc1ccc(Cl)cc1)CC2 (stereo unspecified) ?
Outgoing: 71.9

Incoming: // repeat for COc1ccc(NC(=O)CC2CCc3cc(OC)c(OC)cc32)cc1 (stereo unspecified) and report
Outgoing: 34.4

Incoming: // repeat for COc1cc2c(cc1OC)C(CC(=O)Nc1cccc(Cl)c1)CC2 (stereo unspecified) and report
Outgoing: 31.2

Incoming: // repeat for COc1cc2c(cc1OC)C(CC(=O)Nc1ccc(Br)cc1)CC2 (stereo unspecified) and report
Outgoing: 50

Incoming: // repeat for COc1cc2c(cc1OC)C(CC(=O)Nc1cccnc1)CC2 (stereo unspecified) and report
Outgoing: 25

Incoming: // repeat for COc1cc2c(cc1OC)C(CC(=O)Nc1ccccn1)CC2 (stereo unspecified) and report
Outgoing: 25

Incoming: // repeat for COc1cc2c(cc1OC)C(CC(=O)Nc1ccccc1C)CC2 (stereo unspecified) and report
Outgoing: 21.9

Incoming: // repeat for COc1cc2c(cc1OC)C(CC(=O)Nc1ccc(C)cc1)CC2 (stereo unspecified) and report
Outgoing: 34.4

Incoming: // repeat for COc1cc2c(cc1OC)C(CC(=O)Nc1ccc([N+](=O)[O-])cc1)CC2 (stereo unspecified) and report
Outgoing: 37.5

Incoming: // repeat for COc1ccccc1NC(=O)CC1CCc2cc(OC)c(OC)cc21 (stereo unspecified) and report
Outgoing: 28.1

Incoming: // repeat for COc1cc2c(cc1OC)C(CC(=O)Nc1ccccc1)CC2 (stereo unspecified) and report
Outgoing: 31.2
